Tested system: p38 (Homo sapiens, UniProt Q16539)
Sequence (Q16539 whole entry): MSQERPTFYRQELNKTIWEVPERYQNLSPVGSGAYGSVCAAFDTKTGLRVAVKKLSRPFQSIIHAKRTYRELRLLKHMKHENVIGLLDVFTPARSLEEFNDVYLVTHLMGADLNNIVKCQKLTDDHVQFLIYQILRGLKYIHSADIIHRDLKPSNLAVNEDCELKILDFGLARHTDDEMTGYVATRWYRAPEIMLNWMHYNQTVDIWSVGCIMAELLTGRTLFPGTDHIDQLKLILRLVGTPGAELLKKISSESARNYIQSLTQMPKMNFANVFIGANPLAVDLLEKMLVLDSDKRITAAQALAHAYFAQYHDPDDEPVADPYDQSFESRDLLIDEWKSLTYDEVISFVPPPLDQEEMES
pIC50: −log10 of the molar value.
Experimental endpoint: pIC50

[Q] Specify pIC50 for Cn1cc(-c2ccc3cnc(Nc4ccc(-n5cnc(N6CCOCC6)n5)cc4)nc3c2-c2cnn(C)c2)cn1 [14d] and stop.
[A] < 4.70

====

Assay name: rat pharmacokinetics
Assay type: in vivo
Condition summary: rat, plasma, iv, 1 mg/kg
Experimental endpoint: clearance
Please give the number followed by its unit.

[Q] Specify clearance for Cn1cc(-c2ccc3cnc(Nc4ccc(-n5cnc(N6CCOCC6)n5)cc4)nc3c2Cl)cn1 [13a] and stop.
[A] 6 mL/min/kg
